Quick list: DR/DR LNA per entry.
# Experimental protocol: Probe fluorescence ratio response to linolenic acid relative to ADIFAB2
# Type: binding
# Condition parameters: response relative to ADIFAB2

Reported DR/DR LNA of 72T 73G 74I (protein, listed as Rattus norvegicus, PEPTIDE (1)...(131) wild-type rat intestinal fatty acid binding protein) AFDGTWKVDRNENYEKFMEKMGINVVKRKLGAHDNLKLTITQEGNKFTVKESSNFRNIDVVFELGVDFAYSTGIGTELTGTWTMEGNKLVGKFKRVDNGKELIAVREISGNELIQTYTYEGVEAKRIFKKE : 2.317

Turning now to a further molecule:
The reported DR/DR LNA of the molecule 51H1, 72A (protein, listed as Rattus norvegicus, PEPTIDE (1)...(131) wild-type rat intestinal fatty acid binding protein) AFDGTWKVDRNENYEKFMEKMGINVVKRKLGAHDNLKLTITQEGNKFTVKHSSNFRNIDVVFELGVDFAYSAADGTELTGTWTMEGNKLVGKFKRVDNGKELIAVREISGNELIQTYTYEGVEAKRIFKKE was 1.58
